Please provide measured Kd for the entries that follow.
Molecular target: T1, ectodomain of RGI3 with C-terminal Strep II-9x His tag (RGI3^ECD-Strep II-9x His) (Arabidopsis thaliana, UniProt C0LGR3 25-703, fluorescent dye by Monolith Protein Labeling Kit RED-tris-NTA Second Generation (His-tag reactive))
T1 construct: It was cloned into the baculovirus transfer vector pMeIBac B1 for secreted expression; not shown: Strep II-9x His, C-terminal, kept
T1 sequence (looked up): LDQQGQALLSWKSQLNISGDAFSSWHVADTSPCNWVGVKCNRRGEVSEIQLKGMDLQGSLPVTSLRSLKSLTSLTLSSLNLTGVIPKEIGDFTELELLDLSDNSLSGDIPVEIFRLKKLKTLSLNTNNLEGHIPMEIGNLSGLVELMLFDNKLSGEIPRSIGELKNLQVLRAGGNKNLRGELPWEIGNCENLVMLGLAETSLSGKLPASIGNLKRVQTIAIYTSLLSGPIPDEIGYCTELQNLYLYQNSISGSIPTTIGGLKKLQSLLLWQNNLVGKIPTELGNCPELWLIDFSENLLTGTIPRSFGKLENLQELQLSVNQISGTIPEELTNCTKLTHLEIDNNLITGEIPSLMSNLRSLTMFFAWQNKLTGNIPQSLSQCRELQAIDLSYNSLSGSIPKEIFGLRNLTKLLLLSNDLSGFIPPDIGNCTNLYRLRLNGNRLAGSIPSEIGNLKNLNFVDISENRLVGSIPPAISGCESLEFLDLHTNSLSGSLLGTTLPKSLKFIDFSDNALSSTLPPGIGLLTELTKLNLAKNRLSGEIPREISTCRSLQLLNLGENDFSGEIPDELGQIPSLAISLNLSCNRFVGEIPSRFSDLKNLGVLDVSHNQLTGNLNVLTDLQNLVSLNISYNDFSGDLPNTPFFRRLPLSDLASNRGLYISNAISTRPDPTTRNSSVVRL
Details: both partners purified
Non-standard residues stand in square brackets, D forms with d. No end group written: not given here. *: point of attachment. SO3H = sulfated tyrosine (TyrSO3H2), O=S(=O)(O)*; Hyp = O=C(O)[C@@H]1C[C@@H](O)CN1
Form field: result (number plus unit)

State, in one line, measured Kd of DMDYNSANKKRPIHN (without sulfated tyrosine, mature GLV2 peptide cut from the GLV2 precursor, Arabidopsis thaliana, tyrosine not sulfated; also called GLV^-S; source: synthetic peptide (Pepmic, Suzhou, China; purity minimum 90%)) [GLV2 peptide without sulfated tyrosine (GLV2^-S)] 129 nM

Alright, here's another binder for you.
State, in one line, measured Kd of DMDY(SO3H)NSANKKR[Hyp]IHN (mature GLV2 peptide cut from the GLV2 precursor, Arabidopsis thaliana; also called synthetic GLV2; source: synthetic peptide (Pepmic, Suzhou, China; purity minimum 90%)) [GOLVEN2 (GLV2) peptide, tyrosine-sulfated] 11.8 nM

The measurements presented in this section are drawn from paper PMC9066070.
